Target Desc: T1, Human CD93 on the cell surface (human CD93 expressing CHO cells; HUVEC, U937 and KG1a cells) (human, UniProt Q9NPY3 22-652)
T1 construct: whole, on cells; also called hCD93 CHO cells; CHO-hCD93
T1 sequence (looked up): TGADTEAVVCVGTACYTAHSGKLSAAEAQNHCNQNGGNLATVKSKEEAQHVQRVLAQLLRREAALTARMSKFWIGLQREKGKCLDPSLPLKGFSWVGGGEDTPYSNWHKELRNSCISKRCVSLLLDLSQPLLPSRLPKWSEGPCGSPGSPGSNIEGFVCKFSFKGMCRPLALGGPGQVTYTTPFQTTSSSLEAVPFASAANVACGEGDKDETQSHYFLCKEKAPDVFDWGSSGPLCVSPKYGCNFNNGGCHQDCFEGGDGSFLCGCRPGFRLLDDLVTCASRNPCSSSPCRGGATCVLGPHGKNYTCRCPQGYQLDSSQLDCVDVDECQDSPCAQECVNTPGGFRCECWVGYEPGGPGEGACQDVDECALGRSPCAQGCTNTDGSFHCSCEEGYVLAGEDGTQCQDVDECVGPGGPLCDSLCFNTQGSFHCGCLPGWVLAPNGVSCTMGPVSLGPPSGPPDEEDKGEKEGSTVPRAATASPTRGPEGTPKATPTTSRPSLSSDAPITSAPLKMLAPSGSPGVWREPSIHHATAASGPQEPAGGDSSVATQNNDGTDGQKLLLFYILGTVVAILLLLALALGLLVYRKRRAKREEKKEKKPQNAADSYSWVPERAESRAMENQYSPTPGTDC
Measurement Protocol: summary table, column 'Binding' (assay not given)

[
  {
    "Binder": "17E6 (antibody, V domains shown, Mouse hybridoma monoclonal antibody) VH: EVQLQQSGPELVKPGASVKMSCKASGYTFTSYVIHWVKQKPGQGLEWIGYINPYSDYTQYNEKFKGKATLTSDKSSSTAYMELSSLTSEDSAVYSCARRADGNPYAMDYWGQGTSVTVSS VL: DIVMTQSHKFMSTSVGDRVSTTCKASQDVSTAVVWYQQKPGQSPKLLIYSASYRYTGVPDRFTGSGSGTDFTFTITSVQAEDLAVYYCQQHYSTPFTFGSGTKLEIK",
    "binding result": "binds"
  },
  {
    "Binder": "12H4 (antibody, V domains shown, Mouse hybridoma monoclonal antibody) VH: EVQLQQSGPELVKPGASVKVSCKASGYTFTDYYIHWVKQRPGQGLEWIGEIYPGSDDAYYNEKFKGKATLTADKSSSTAYMQLSSLTSEDSAVYFCTRETTATAYWGQGTLVTVSA VL: QIVLTQSPAIMSASPGEKVTITCSASSSVSLIYWFQQKPGTSPKLWIYSTSNLASGVPARFSGSGSGTSYSLTISRMEAEDAATYYCQQRSGYPPTFGGGTKLEIK",
    "binding result": "binds"
  },
  {
    "Binder": "20C7 (antibody, V domains shown, Mouse hybridoma monoclonal antibody) VH: EVQLQQSGPELVNPGASVKMSCKASGYTFTAYVMHWVKQKPGQGLEWIGYIFPYNDGTEYNEKFKGKATLTSDKSSSTAYMELSSLTSEDSAVYYCARRTDGNPYTMDYWGQGTSVTVSS VL: DIVMTQSHKFMSTSVGDRVSITCKASQDVSTAVAWYQQKPGQSPKLLIHSASYRYTGVPDRFTGRGSGTDFTFTISSVQAEDLAVYYCQQHYSTPFTFGSGTKLEIK",
    "binding result": "binds"
  }
]
